Tested on: COLO 205 colon
Assay remarks: NCI-60 one-dose screen, 48 h (100 = growth as untreated, 0 = no growth, -100 = all killed)
Run conditions: 10 µM
The panel holds about 83,000 compounds, 20% with a hit somewhere; the sample as a whole holds those more often.
Measured growth, listed per entry.
Give the value in % but do not write % after it.

Use the examples below as a reference point.
Smiles code: O=C(CC(=O)Nc1ccc(Oc2ncnc3scc(Nc4n[nH]c(=S)s4)c23)cc1)Nc1ccc(Br)cc1
growth (%): 107

Smiles code: O=C1NC(=S)S/C1=C\c1cn(-c2ccccc2)nc1-c1ccc([N+](=O)[O-])cc1
growth (%): 11.7

Here is another compound to look at.
What value of growth has been recorded for this entry: `O=C(Nc1ccc(Oc2ncnc3scc(Nc4n[nH]c(=S)s4)c23)cc1)C1(C(=O)Nc2cccc(C(F)(F)F)c2)CC1`
101

* * *

Tested on: MDA-MB-435 melanoma
Assay remarks: NCI-60 one-dose screen, 48 h
Run conditions: 10 µM
This is part of a sample that, as a whole, favours compounds with a hit. Of some 83,000 tested, about 20% had one in any assay. Activity calls are given as the source filed them. Rule for the calls: active = growth percent below 10; inactive = the rest.
Hi! Could you answer with just one of these? True (active), False (inactive)

Worked cases, answers included:
Smiles code: O=C(Nc1ccc(OCc2ccc(Cl)cc2)cc1)Nc1ccc(Cl)c(C(F)(F)F)c1
Class assignment: False

Smiles code: CC1(C)CC(=O)C2=C(C1)N(Cc1ccc(C(=O)O)cc1)C1=C(C(=O)CC(C)(C)C1)C2c1ccc(Cl)cc1
Class assignment: False

Smiles code: Nc1nnc(-c2c[nH]c3ncc(Br)cc23)c(-c2c[nH]c3ccc(Br)cc23)n1
Class assignment: False

Now look at this one.
Query: recorded result category for `C#C[C@]1(O)CC[C@H]2[C@@H]3CC=C4c5sc(Nc6ccc(N(C)C)cc6)nc5CC[C@]4(C)[C@H]3CC[C@@]21C` in this test
True

* * *

Test system: MDA-MB-468 breast
Assay remarks: NCI-60 one-dose screen, 48 h
Run conditions: 10 µM unless noted
About 83,000 compounds went through this panel and 20% of them were active in at least one assay; those are over-represented in the sample as a whole. Activity calls are given as the source filed them. How the source made its calls: active means growth percent below 10; inactive means the rest.
Hi! Could you answer with just one of these? YES for active, NO for inactive

Worked cases, answers included:
Smiles code: Cc1ncc(C(=O)Nc2ccc(CN3CCN(C)CC3)c(C(F)(F)F)c2)cc1C#Cc1cnc(N)c2ccncc12
Class assignment: YES

Smiles code: C=C(C)[C@@H]1CC[C@]2(C)[C@H](CC=C3[C@@H]4CC(C)(C)CC[C@]4(C(N)=O)CC[C@]32C)[C@@]1(C)CCC#N
Class assignment: NO

Query: recorded result category for `CN1CCN(Cc2ccc(NC(=O)c3cncc(C#Cc4cnc5ccc(N6CCOCC6)nn45)c3)cc2C(F)(F)F)CC1` in this test
YES

* * *

Test system: MDA-MB-468 breast
Assay remarks: NCI-60 one-dose screen, 48 h
Run conditions: 10 µM unless noted
Procedure: Growth inhibition of the MDA-MB-468 human Breast tumor cell line is measured as a screen for anti-cancer activity. Cells are grown in 96 well plates and exposed to the test compound for 48 hours. Compounds are tested at a single concentration, which is 10^-5 M for most compounds. The reported endpoint is percent growth (GI% or GIPRCNT), where numbers from 0 - 100% represent growth inhibition, and numbers from -100% - 0 represent cell death. […]
The panel holds about 83,000 compounds, 20% with a hit somewhere; the sample as a whole holds those more often. Calls of active or inactive are those of the source. How the source made its calls: active means growth percent below 10; inactive means the rest.
Hi! Could you answer with just one of these? active, inactive

Worked cases, answers included:
Compound: O=C(Nc1ccc2ncnc(Nc3ccc(Oc4cccc(F)c4)c(Cl)c3)c2c1)c1ccc(CNCCO)cc1
Class assignment: active
//
Compound: NCCOc1ccccc1/C=C1\c2ccccc2-c2ccc([N+](=O)[O-])cc21
Class assignment: active
//
Compound: CC(C)[C@H](CO)Nc1nc(Nc2ccc(C(=O)NCCNS(=O)(=O)c3cccc4c(N(C)C)cccc34)c(Cl)c2)c2ncn(C(C)C)c2n1
Class assignment: active
//
Compound: COC(=O)c1sc(-c2ccc(C)cc2)cc1O
Class assignment: inactive

Query: recorded result category for `COc1ccc2c(c1)c1nc3cc(C)c(C)cc3nc1n2CCN(C)C` in this test
active

Query: recorded result category for Clc1cc(Cl)cc(N2N=C(c3cccc(Nc4ccncc4)c3)CC2c2ccc(Br)cc2)c1 (stereo not given) in this test
inactive

Query: recorded result category for COc1ccc2c(c1)NC1=C(C(=O)OC1)C2c1cc(OC)c2c(c1)OCO2 (stereo not given) in this test
active

Query: recorded result category for `CCOC(=O)C1=NN(c2ccccc2)C(=O)/C1=C\N1C(=O)/C(=C/c2cccc(O)c2)SC1=S` in this test
inactive

Query: recorded result category for `COC(=O)CCc1n(Cc2ccc3ccccc3c2)c2ccccc2[n+]1Cc1ccc2ccccc2c1` in this test
active

Query: recorded result category for `O=C(NC[C@H](O)CN1CCc2ccccc2C1)c1cc(NC2COC2)ncn1` in this test
inactive

Query: recorded result category for `O=C(CCCCNC(=O)c1nc(-c2ccccc2)n(-c2ccccc2)n1)NO` in this test
inactive

Query: recorded result category for CCOC(=O)c1nn(C2CCCCO2)c2ccc(NS(=O)(=O)c3ccc(C)cc3)cc12 (stereo not given) in this test
inactive

Query: recorded result category for `O=C1/C=C/[C@@H](O)[C@@H]2C[C@@H](O)C[C@H]2/C=C/CCCCO1` in this test
active

Query: recorded result category for `CC1=C(/C=C/C(C)=C/C=C/C(C)=C/C(=O)Nc2ccc(O)cc2)C(C)(C)CCC1` in this test
inactive

Query: recorded result category for COc1ccc(/C=c2\sc3n(c2=O)C2C(NN=3)N(C)C(=O)N2C)cc1 (stereo not given) in this test
active
